test system: human LDL receptor gene promoter coupled to firefly luciferase reporter gene in Hep-G2 cell line; experiment: In vitro determination of LDL receptor induction using the luciferase assay; type: cell-based; conditions: 0.15 μM, luminescence, DMSO control=100%
QUANTITY_MEASURED: LDL receptor induction (% of control) (%)

CCN(CCN(C)C)c1cc(NC2CCN(Cc3ccccc3)CC2)c(S(=O)(=O)N2CCCCC2)cc1S(=O)(=O)N1CCCCC1 = 177
CN1CCN(c2cc(NCCCc3ccccc3)c(S(=O)(=O)N3CCOCC3)cc2S(=O)(=O)N2CCOCC2)CC1 = 137
O=S(=O)(NCCc1cccs1)c1cc(S(=O)(=O)NCCc2cccs2)c(NCc2cccc3ccccc23)cc1NCCN1CCCC1 = 198
CN1CCN(c2cc(NCCCc3ccccc3)c(S(=O)(=O)N(C)c3ccccc3)cc2S(=O)(=O)N(C)c2ccccc2)CC1 = 168
CCN(CCN(C)C)c1cc(N2CCC(c3ccccc3)CC2)c(S(=O)(=O)NCCc2cccs2)cc1S(=O)(=O)NCCc1cccs1 = 213
